- System: human CD33 G347A (human, UniProt P20138 18-364)
- Sequence (P20138 18-364 G347A limits assumed): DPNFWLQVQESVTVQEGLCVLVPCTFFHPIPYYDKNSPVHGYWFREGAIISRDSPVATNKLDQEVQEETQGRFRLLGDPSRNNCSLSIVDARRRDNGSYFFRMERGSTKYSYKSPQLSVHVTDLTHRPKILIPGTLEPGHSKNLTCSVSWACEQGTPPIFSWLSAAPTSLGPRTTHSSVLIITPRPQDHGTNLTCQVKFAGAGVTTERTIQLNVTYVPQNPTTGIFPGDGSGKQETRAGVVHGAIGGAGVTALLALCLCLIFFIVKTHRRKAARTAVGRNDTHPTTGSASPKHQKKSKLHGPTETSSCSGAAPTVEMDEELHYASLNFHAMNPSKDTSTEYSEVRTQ
- Method summary: flow cytometry, alanine scan
Measured Mean % WT Binding accompanies every entry in the list below.
Attribute measured: Mean % WT Binding

>  <Binder>
Refmab #4 (antibody, V domains shown, The alanine scan used IgG or Fab) VH: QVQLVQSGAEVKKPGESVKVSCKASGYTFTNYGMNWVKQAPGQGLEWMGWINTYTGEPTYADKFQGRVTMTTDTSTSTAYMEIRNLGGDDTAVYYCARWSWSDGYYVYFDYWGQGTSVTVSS VL: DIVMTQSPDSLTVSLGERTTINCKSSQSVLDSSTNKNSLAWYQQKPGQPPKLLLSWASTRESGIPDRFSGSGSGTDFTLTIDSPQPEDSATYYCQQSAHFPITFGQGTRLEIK

>  <Reported result>
72.1 % of WT

$$$$
>  <Binder>
Refmab #3 (antibody, V domains shown, The alanine scan used IgG or Fab) VH: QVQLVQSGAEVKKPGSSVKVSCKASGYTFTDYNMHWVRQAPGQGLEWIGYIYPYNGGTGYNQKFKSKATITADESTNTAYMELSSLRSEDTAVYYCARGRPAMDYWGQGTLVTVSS VL: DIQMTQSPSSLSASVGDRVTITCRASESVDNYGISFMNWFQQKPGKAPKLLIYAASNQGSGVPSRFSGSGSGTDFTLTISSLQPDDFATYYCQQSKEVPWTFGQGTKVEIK

>  <Reported result>
118 % of WT

$$$$
>  <Binder>
Refmab #2 (antibody, V domains shown, The alanine scan used IgG or Fab) VH: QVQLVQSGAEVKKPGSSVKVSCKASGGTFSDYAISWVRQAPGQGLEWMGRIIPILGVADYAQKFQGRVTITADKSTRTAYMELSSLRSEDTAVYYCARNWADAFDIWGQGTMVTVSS VL: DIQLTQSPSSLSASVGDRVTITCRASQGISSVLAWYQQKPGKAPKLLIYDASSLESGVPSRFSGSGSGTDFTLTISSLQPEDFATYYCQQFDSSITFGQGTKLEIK

>  <Reported result>
85.9 % of WT

$$$$
>  <Binder>
Refmab #1 (antibody, V domains shown, The alanine scan used IgG or Fab; also called hP67.6) VH: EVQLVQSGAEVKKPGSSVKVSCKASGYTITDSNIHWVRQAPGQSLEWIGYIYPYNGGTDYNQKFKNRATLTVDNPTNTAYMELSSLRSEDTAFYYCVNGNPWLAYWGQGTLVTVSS VL: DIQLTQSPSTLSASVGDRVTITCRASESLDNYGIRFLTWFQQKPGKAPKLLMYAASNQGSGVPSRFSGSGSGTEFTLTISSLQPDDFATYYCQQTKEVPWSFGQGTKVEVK

>  <Reported result>
85.1 % of WT

$$$$
